- Test system: NCI-H23
- PROTOCOL NOTES: NCI tumour cell line growth inhibition, 48 h
Calls of active or inactive are those of the source. No stated cut-off is given here; in the data, active = GI50 up to about 1.1 µM and inactive = higher. Where a SMILES comes first, the peptide text is derived from it. Peptide text beside a SMILES is read from it. [ ]: non-standard residue; d: D form. The star is where a group is joined. * marks the point of attachment. ξ: configuration not given here. ξPhe(4-NO2) = NC(Cc1ccc([N+](=O)[O-])cc1)C(=O)O; Boc = CC(C)(C)OC(=O)*
QUANTITY MEASURED: GI50

Incoming: What value of GI50 has been recorded for this entry: N#CC(/C(CCCC(=O)Nc1cccc([N+](=O)[O-])c1)=N\NC(=O)c1c(O)ccc2ccccc12)c1nc2ccccc2s1 (configuration not stated)
Outgoing: 37.5 µM (inactive)

Incoming: Again, but for CSc1nc2c(nc(N)n2C2OC(COC(C)=O)C(OC(C)=O)C(OC(C)=O)C2OC(C)=O)c(=O)n1C (configuration not stated)
Outgoing: > 100 µM (inactive)

Incoming: Again, but for COc1c(C(=O)O)oc2c(OC)cccc12
Outgoing: > 100 µM (inactive)

Incoming: Again, but for CC1(C)CCc2cc3c(-c4ccccc4)cc(=O)oc3cc2O1
Outgoing: > 100 µM (inactive)

Incoming: Again, but for CCC1(CC)SCc2nc3ccccc3n21
Outgoing: 27.7 µM (inactive)

Incoming: Again, but for CC(C)(C)OC[C@H](O)CC#N
Outgoing: > 100 µM (inactive)

Incoming: Again, but for OC(c1ccc(F)cc1)C(F)(F)c1nc(-c2ccccc2)no1 (configuration not stated)
Outgoing: 26.1 µM (inactive)

Incoming: Again, but for C#CCOC(=O)C(N)C(C)O (configuration not stated)
Outgoing: > 100 µM (inactive)

Incoming: Again, but for COc1cc2cc(OC)c3cc4c(cc3c2c(OC)c1OC)OCO4
Outgoing: 39.8 µM (inactive)

Incoming: Again, but for Cc1cccc(N/C(=C(/C(Cl)=C(Cl)Cl)[N+](=O)[O-])n2nnc3ccccc32)c1
Outgoing: 16.8 µM (inactive)

Incoming: Again, but for Oc1ccc2c(c1)-c1c(c3cc(O)ccc3n1CCN1CCOCC1)CC2
Outgoing: 25.3 µM (inactive)

Incoming: Again, but for COC(=O)/C=C1/OC(c2ccc(C)cc2C)=CC1=O
Outgoing: 24.5 µM (inactive)

Incoming: Again, but for COc1ccc(/C=C/C(=O)C(C)(C)CN2CCCCC2)cc1
Outgoing: 24.5 µM (inactive)

Incoming: Again, but for COC(=O)C(Cc1c[nH]c2ccccc12)NC(=O)C(Cc1c[nH]c2ccccc12)NC(=O)C(Cc1c[nH]c2ccccc12)NC(=O)C(Cc1c[nH]c2ccccc12)NC(=O)C(Cc1c[nH]c2ccccc12)NC(=O)OC(C)(C)C (configuration not stated) (Boc-WWWWW-OMe; configuration not given here)
Outgoing: 58.1 µM (inactive)

Incoming: Again, but for COc1ccc2c3c1O[C@H](c1ccc(O)cc1)[C@H]3[N+](C)(C)CC2
Outgoing: 46.6 µM (inactive)

Incoming: Again, but for CC(=O)NNc1nc(C)c(C(/C=C/c2ccc(Cl)cc2)=N/NC(=O)C[N+](C)(C)C)s1
Outgoing: > 100 µM (inactive)

Incoming: Again, but for CN1CCCCC1CCN1CCCCC1 (configuration not stated)
Outgoing: > 100 µM (inactive)

Incoming: Again, but for COC(=O)NC(Cc1ccccc1)NC(=O)OC(C)(C)C (configuration not stated)
Outgoing: > 100 µM (inactive)

Incoming: Again, but for O=P1(NCCCl)OCCCN1CCCl (configuration not stated) [IFOSFAMIDE]
Outgoing: 417 µM (inactive)

Incoming: Again, but for CC1(C)OC(=O)C(=C2CC(c3ccccc3)c3ccccc32)C(=O)O1 (configuration not stated)
Outgoing: > 100 µM (inactive)

Incoming: Again, but for CO[C@@H]1C[C@H]2[C@@H]3CC[C@H]([C@H](C)COC(C)=O)[C@@]3(C)CC[C@@H]2[C@@]2(C)CC[C@H]3C[C@]312
Outgoing: > 100 µM (inactive)

Incoming: Again, but for COC(c1ccc(C(C)(C)C)cc1)(c1ccc(C(C)(C)C)cc1)c1cc(C(O)(c2cc(C(OC)(c3ccc(C(C)(C)C)cc3)c3ccc(C(C)(C)C)cc3)c(C)cc2C)c2cc(C(OC)(c3ccc(C(C)(C)C)cc3)c3ccc(C(C)(C)C)cc3)c(C)cc2C)c(C)cc1C
Outgoing: > 100 µM (inactive)

Incoming: Again, but for CCNC(=O)CNC(=O)C(Cc1ccc([N+](=O)[O-])cc1)NC(=O)OC(C)(C)C (configuration not stated) (Boc-[ξPhe(4-NO2)]-Gly-NHEt)
Outgoing: > 100 µM (inactive)

Incoming: Again, but for COc1cc(/C=C/C(=O)c2sc(Nc3ccccc3)nc2C)ccc1O
Outgoing: > 100 µM (inactive)

Incoming: Again, but for COc1nc(NC2OC(COC(C)=O)C(OC(C)=O)C(OC(C)=O)C2OC(C)=O)c(/N=C/C=N/c2c(NC3OC(COC(C)=O)C(OC(C)=O)C(OC(C)=O)C3OC(C)=O)nc(OC)n(C)c2=O)c(=O)n1C (configuration not stated)
Outgoing: > 100 µM (inactive)

Incoming: Again, but for O=[N+]([O-])c1ccc(C2N3CCCCC3[C@@H]3c4[nH]c5ccccc5c4CCN23)cc1 (some centres not stated)
Outgoing: 15.5 µM (inactive)

Incoming: Again, but for CC(=O)Nc1ccc(S(=O)(=O)[N-]C2C(=O)c3ccccc3C(=O)C2[n+]2ccccc2)cc1 (configuration not stated)
Outgoing: 7.64 µM (inactive)

Incoming: Again, but for COC(=O)C1C2OC(C)(C)OC2CN1S(=O)(=O)c1ccc(C)cc1 (configuration not stated)
Outgoing: > 100 µM (inactive)

Incoming: Again, but for C#CCCCC(=O)N(C(=O)C[S+]([O-])CC)c1ccccc1 (configuration not stated)
Outgoing: > 100 µM (inactive)

Incoming: Again, but for O=C/C=C/c1ccco1
Outgoing: > 100 µM (inactive)

Incoming: Again, but for CC1=C(C(=O)Nc2cc(F)c(F)cc2F)C(c2ccc3c(c2)OCO3)C(C(=O)Nc2cc(F)c(F)cc2F)=C(C)N1
Outgoing: 19.8 µM (inactive)

Incoming: Again, but for C=CCn1c(-c2ccc([N+](=O)[O-])cc2)csc1=N
Outgoing: 30 µM (inactive)

Incoming: Again, but for Cc1ccccc1NC(=O)C(=O)Cc1nc2ccccc2s1
Outgoing: > 100 µM (inactive)

Incoming: Again, but for CC1OC(n2ccc3ccc([N+](=O)[O-])cc32)C(O)C(O)C1O (configuration not stated)
Outgoing: > 100 µM (inactive)

Incoming: Again, but for COC1(OC)N=C(N)C2(C#N)C(C)=C3NCN(C)N=C3C12C#N (configuration not stated)
Outgoing: > 100 µM (inactive)

Incoming: Again, but for CCCCn1c(C)c2c(c1C)C(=O)N(CC(O)CN1CCc3ccccc3C1)C2=O (configuration not stated)
Outgoing: 56.5 µM (inactive)

Incoming: Again, but for CC(C)(C)OC(=O)N1Cc2cc(O)ccc2C[C@H]1C(=O)O
Outgoing: > 100 µM (inactive)

* * *

- Tested on: SNB-78
- PROTOCOL NOTES: NCI tumour cell line growth inhibition, 48 h
The source made the active and inactive calls. Rule as the data show it: active = GI50 up to about 1.1 µM and inactive = higher.
Parameter call: string, one of active, inactive

Incoming: State the result this test recorded for CN1NC(c2ccccc2)=C(C#N)C(=O)CC1c1ccc(F)cc1 (configuration not stated) .
Outgoing: inactive

Incoming: Again, but for CCCCCCCCCCCCCCCCCCN(C)CC(COC)OP(=O)([O-])OCC[N+](C)(C)C (configuration not stated)
Outgoing: inactive

Incoming: Again, but for COC(=O)C1N=CSCC1(C)O (configuration not stated)
Outgoing: inactive

Incoming: Again, but for CCN(C(C)=N)c1ccccc1
Outgoing: inactive

Incoming: Again, but for Cc1[nH]c2ccccc2c1-c1n[nH]c(=O)c2ccccc12
Outgoing: inactive

Incoming: Again, but for C[N+](C)(C)CC1CCC(C[N+](C)(C)C)C1=O (configuration not stated)
Outgoing: inactive

Incoming: Again, but for O=C(CCC(=O)Nc1cccc(C(F)(F)F)c1)CC(=O)c1ccc2ccccc2c1
Outgoing: inactive

Incoming: Again, but for CC1=CCCC2C1(C)CCC(C)C2(C)Cc1cc(O)ccc1O (configuration not stated)
Outgoing: inactive

Incoming: Again, but for CCC1CCCCN1CC(C(C)=O)C(c1ccccc1)c1c(O)c2ccccc2oc1=O (configuration not stated)
Outgoing: inactive

Incoming: Again, but for CC1=C(/C(C)=N/NC(=O)C(N)=O)Sc2ccccc2N1
Outgoing: inactive

Incoming: Again, but for COc1ccc(CC2C(=O)NC(C)C(=O)N(C)C3Cc4ccc(cc4)Oc4cc(ccc4O)CC(C(=O)NC(C)C(=O)NC(C)C(=O)N2C)N(C)C3=O)cc1 (configuration not stated)
Outgoing: active

Incoming: Again, but for CN(C)CC1(C)CC/C(=C\c2ccc3c(c2)OCO3)C1=O (configuration not stated)
Outgoing: inactive

Incoming: Again, but for Cn1c2ccccc2c2[nH]cc3nc4ccccc4c-3c21
Outgoing: inactive

Incoming: Again, but for CSc1nc2c(nc(N)n2C2OC(COC(C)=O)C(OC(C)=O)C(OC(C)=O)C2OC(C)=O)c(=O)n1C (configuration not stated)
Outgoing: inactive

Incoming: Again, but for O=C(c1ccc(Cl)cc1)c1ccc(OCCCCCCCCCCOc2ccc(C(=O)c3ccc(Cl)cc3)cc2)cc1
Outgoing: inactive

Incoming: Again, but for CC(C)(C)NCC(COc1ccc([N+](=O)[O-])cc1)OP(c1ccccc1)c1ccccc1 (configuration not stated)
Outgoing: inactive

Incoming: Again, but for CC(=O)O[C@]1(C)OC(=O)[C@@H](CC(C)C)N1[N+](=O)[O-]
Outgoing: inactive

Incoming: Again, but for CC(=O)N(C)c1ccc2c(ccc[n+]2[O-])c1[N+](=O)[O-]
Outgoing: inactive

Incoming: Again, but for COc1c(C(=O)O)oc2c(OC)cccc12
Outgoing: inactive

Incoming: Again, but for CCOc1ccc(/N=C\c2cc(OC)c(OC)c(OC)c2)cc1
Outgoing: inactive

Incoming: Again, but for CC1C(=O)C(C)C(c2ccccc2)N(N=O)C1c1ccccc1 (configuration not stated)
Outgoing: inactive

Incoming: Again, but for CCOC(=O)N[C@H]1CCc2cc(OC)c(OC)c(OC)c2-c2ccc(SC)c(=O)cc21
Outgoing: active

// data source = ChEMBL document CHEMBL1201862
